test system: SK-MEL-2; assay: Cytotoxicity against human SK-MEL-2 cells assessed as growth inhibition at 10 uM after 48 hrs by SRB assay relative to control; type: functional; details: SK-MEL-2, 48 h, read-out: GI
Readout Kind: inhibition of growth at 10 µM

- Molecule: "O=c1oc2cc(N3CCOCC3)ccc2cc1-c1nc2ccccc2[nH]1"
  Observed Measurement: "< 20%"

Lab note: O=c1oc2cc(NCCO)ccc2cc1-c1nc2ccccc2[nH]1 gave inhibition of growth at 10 µM of < 20%

Record NCCNc1ccc2cc(-c3nc4ccccc4[nH]3)c(=O)oc2c1 . Reported inhibition of growth at 10 µM: < 20%

For record O=c1oc2cc(Br)ccc2cc1-c1nc2ccccc2[nH]1 the listed inhibition of growth at 10 µM is < 20%

get_value(item= CN1CCN(c2ccc3cc(-c4nc5ccccc5[nH]4)c(=O)oc3c2)CC1 , readout=inhibition of growth at 10 µM) returns < 20%

Briefly, inhibition of growth at 10 µM measured for O=c1oc2cc(NCCN3CCOCC3)ccc2cc1-c1nc2ccccc2[nH]1 : < 20%

Memo: O=c1[nH]cc(F)c(=O)[nH]1 [FLUOROURACIL] , reported inhibition of growth at 10 µM: 95.5%
